# switch fluorescence ratio annotations
system: ATP; test: switch fluorescence ratio, 500 uM ATP over buffer (Cy3 cluster intensity, sum of 5 cycles each) (fold (ratio)); higher = stronger signal-on switching upon ATP binding; sequences stand for … in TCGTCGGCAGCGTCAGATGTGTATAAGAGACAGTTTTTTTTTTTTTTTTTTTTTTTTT…TC; conditions: aptamer strand: ATP DNA aptamer (quencher-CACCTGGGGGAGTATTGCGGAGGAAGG + anchor), 100 nM annealed; ATP concentration: 500 uM;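 also: ATP exposure 15 min at 22 °C before imaging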
// no unit string in output, number only

Record excerpt, results attached:
- CCGGGGATTG: 1.01
- AGGGGCTGTG: 0.999
- AGGATGGTAT: 1
- GAGAGGGTTT: 1
- GGGTTAGGTC: 1.02
- TAAGGTACAT: 1.09

Asked: Reported switch fluorescence ratio, sequence ACTGCGGGAC : ____
Given back: 1.51

Asked: Reported switch fluorescence ratio, sequence CGGGGGGTCT : ____
Given back: 0.999

Asked: Reported switch fluorescence ratio, sequence TTTTGAAAGG : ____
Given back: 0.976
